tested on: Ebola virus; test: microbe, parasite or virus in culture; format: cell-based; settings: Zaire ebolavirus, Vero, read-out: EC50 Ebola virus
test_readout: EC50 (nM)

smiles_string: COc1ccc([C@H]2c3[nH]c4ccc(Cl)cc4c3CCN2C(=O)Oc2ccc(Cl)cc2)cc1
test_readout: EC50
endpoint_result: 9

###

Assay: Phase 1 multiple dose study PTC299-ONC-002-HV in healthy volunteers (PK, safety)
Type: in vivo, human
Details: human, plasma, oral, 1.2 mg/kg, 1.2 mg/kg BID, Day 7, capsule
Protocol: The PK of the 200 mg BID dosed for 7 days and 50 mg for 7 days was evaluated in a phase 1, escalating, multiple dose, safety, tolerability, and PK study, PTC299-ONC-002-HV (N=32; n=24 received PTC299 and 8 received placebo). Study PTC299-ONC-002-HV had 2 stages; in Stage 1, doses ranged from 0.3 to 1.2 mg/kg BID, and in Stage 2, a 1.6 mg/kg TID dose was administered. Patients received the capsule formulation of PTC299 for 7 days in both stages. […]
test_readout: Cmax (ng/mL)

smiles_string: COc1ccc([C@H]2c3[nH]c4ccc(Cl)cc4c3CCN2C(=O)Oc2ccc(Cl)cc2)cc1
endpoint_result: 2110

###

assay: Rhesus monkey single oral dose PK; type: in vivo, Rhesus monkeys; details: plasma, single oral 10 mg/kg dose, read-out: Cmax of PTC299

smiles_string: COc1ccc([C@H]2c3[nH]c4ccc(Cl)cc4c3CCN2C(=O)Oc2ccc(Cl)cc2)cc1
Cmax: 2510 ng/mL

###

assay: Phase 1 multiple dose study PTC299-ONC-002-HV in healthy volunteers (PK, safety); assay type: in vivo, human; conditions: human, plasma, oral, 0.3 mg/kg, 0.3 mg/kg BID, Day 1, capsule

smiles_string: COc1ccc([C@H]2c3[nH]c4ccc(Cl)cc4c3CCN2C(=O)Oc2ccc(Cl)cc2)cc1
display_unit: ng/mL
Cmax: 280

###

test: Cytotoxicity in Vero cells by intracellular ATP; conditions: African green monkey

smiles_string: COc1ccc([C@H]2c3[nH]c4ccc(Cl)cc4c3CCN2C(=O)Oc2ccc(Cl)cc2)cc1
CC50 at 48 h: > 10 µM

###

assay: Phase 1 multiple dose study PTC299-ONC-002-HV in healthy volunteers (PK, safety); assay type: in vivo, human; conditions: human, plasma, oral, 1.6 mg/kg, 1.6 mg/kg TID, Day 7, capsule
test_readout: Cmax (ng/mL)

smiles_string: COc1ccc([C@H]2c3[nH]c4ccc(Cl)cc4c3CCN2C(=O)Oc2ccc(Cl)cc2)cc1
display_unit: ng/mL
endpoint_result: 3530

###

test: Phase 1 multiple dose study PTC299-ONC-002-HV in healthy volunteers (PK, safety); format: in vivo, human; settings: human, plasma, oral, 1.2 mg/kg, 1.2 mg/kg BID, Day 7, capsule; read-out: Tmax
test_readout: Tmax (h)

smiles_string: COc1ccc([C@H]2c3[nH]c4ccc(Cl)cc4c3CCN2C(=O)Oc2ccc(Cl)cc2)cc1
endpoint_result: 4

###

Experiment: Phase 1 multiple dose study PTC299-ONC-002-HV in healthy volunteers (PK, safety)
Assay type: in vivo, human
Settings: human, plasma, oral, 0.6 mg/kg, 0.6 mg/kg BID, Day 7, capsule
Description: The PK of the 200 mg BID dosed for 7 days and 50 mg for 7 days was evaluated in a phase 1, escalating, multiple dose, safety, tolerability, and PK study, PTC299-ONC-002-HV (N=32; n=24 received PTC299 and 8 received placebo). Study PTC299-ONC-002-HV had 2 stages; in Stage 1, doses ranged from 0.3 to 1.2 mg/kg BID, and in Stage 2, a 1.6 mg/kg TID dose was administered. Patients received the capsule formulation of PTC299 for 7 days in both stages. […]
test_readout: Cmax (ng/mL)

smiles_string: COc1ccc([C@H]2c3[nH]c4ccc(Cl)cc4c3CCN2C(=O)Oc2ccc(Cl)cc2)cc1
test_readout: Cmax
display_unit: ng/mL
endpoint_result: 1110

###

assay: Phase 1 multiple dose study PTC299-ONC-002-HV in healthy volunteers (PK, safety); format: in vivo, human; conditions: human, plasma, oral, 1.2 mg/kg, 1.2 mg/kg BID, Day 1, capsule
test_readout: Cmax (ng/mL)

smiles_string: COc1ccc([C@H]2c3[nH]c4ccc(Cl)cc4c3CCN2C(=O)Oc2ccc(Cl)cc2)cc1
endpoint_result: 1140

###

test: Phase 1 multiple dose study PTC299-ONC-002-HV in healthy volunteers (PK, safety); type: in vivo, human; conditions: human, plasma, oral, 0.3 mg/kg, 0.3 mg/kg BID, Day 7, capsule
test_readout: Cmax (µg/mL)

smiles_string: COc1ccc([C@H]2c3[nH]c4ccc(Cl)cc4c3CCN2C(=O)Oc2ccc(Cl)cc2)cc1
test_readout: Cmax
endpoint_result: 0.51

###

system: Hepatitis C virus (replicon); experiment: Antiviral activity, Hepatitis C virus replicon (Huh7 cells); assay type: cell-based; conditions: Huh-7
pEC50: −log10 of the molar value.

smiles_string: COc1ccc([C@H]2c3[nH]c4ccc(Cl)cc4c3CCN2C(=O)Oc2ccc(Cl)cc2)cc1
test_target: Hepatitis C virus (replicon)
pEC50: 7.44

###

experiment: Phase 1 multiple dose study PTC299-ONC-002-HV in healthy volunteers (PK, safety); assay type: in vivo, human; details: human, plasma, oral, 0.6 mg/kg, 0.6 mg/kg BID, Day 1, capsule

molecule: COc1ccc([C@H]2c3[nH]c4ccc(Cl)cc4c3CCN2C(=O)Oc2ccc(Cl)cc2)cc1 [PTC299]
Cmax, ng/mL: 710

###

experiment: Rhesus monkey single oral dose PK; type: in vivo, Rhesus monkeys; details: plasma, single oral 10 mg/kg dose, read-out: AUC of PTC299

molecule: COc1ccc([C@H]2c3[nH]c4ccc(Cl)cc4c3CCN2C(=O)Oc2ccc(Cl)cc2)cc1 [PTC299]
AUC: 22500 ng·h/mL

###

test: Phase 1 multiple dose study PTC299-ONC-002-HV in healthy volunteers (PK, safety); type: in vivo, human; details: human, plasma, oral, 0.3 mg/kg, 0.3 mg/kg BID, Day 1, capsule; read-out: Tmax

smiles_string: COc1ccc([C@H]2c3[nH]c4ccc(Cl)cc4c3CCN2C(=O)Oc2ccc(Cl)cc2)cc1
Tmax, h: 4

###

assay: Phase 1 multiple dose study PTC299-ONC-002-HV in healthy volunteers (PK, safety); format: in vivo, human; settings: human, plasma, oral, 1.2 mg/kg, 1.2 mg/kg BID, Day 1, capsule; read-out: Tmax
test_readout: Tmax

smiles_string: COc1ccc([C@H]2c3[nH]c4ccc(Cl)cc4c3CCN2C(=O)Oc2ccc(Cl)cc2)cc1
endpoint_result: 3.5 h

###

experiment: Study PTC299-ONC-007-NF2: PTC299 plasma level; details: human, oral, 100 mg BID

molecule: COc1ccc([C@H]2c3[nH]c4ccc(Cl)cc4c3CCN2C(=O)Oc2ccc(Cl)cc2)cc1 [PTC299]
display_unit: ng/mL
concentration at 4 h: 1900

###

experiment: Phase 1 multiple dose study PTC299-ONC-002-HV in healthy volunteers (PK, safety); type: in vivo, human; conditions: human, plasma, oral, 0.3 mg/kg, 0.3 mg/kg BID, Day 7, capsule; read-out: Tmax
test_readout: Tmax (h)

compound: COc1ccc([C@H]2c3[nH]c4ccc(Cl)cc4c3CCN2C(=O)Oc2ccc(Cl)cc2)cc1 [PTC299]
display_unit: h
endpoint_result: 3.5

###

test: Phase 1 multiple dose study PTC299-ONC-002-HV in healthy volunteers (PK, safety); assay type: in vivo, human; conditions: human, plasma, oral, 1.6 mg/kg, 1.6 mg/kg TID, Day 1, capsule; read-out: AUCO-4

smiles_string: COc1ccc([C@H]2c3[nH]c4ccc(Cl)cc4c3CCN2C(=O)Oc2ccc(Cl)cc2)cc1
AUC, ng·h/mL: 37100

###

assay: Phase 1 multiple dose study PTC299-ONC-002-HV in healthy volunteers (PK, safety); assay type: in vivo, human; details: human, plasma, oral, 1.6 mg/kg, 1.6 mg/kg TID, Day 7, capsule; read-out: AUCO-4

smiles_string: COc1ccc([C@H]2c3[nH]c4ccc(Cl)cc4c3CCN2C(=O)Oc2ccc(Cl)cc2)cc1
AUC: 78600 ng·h/mL

###

experiment: Phase 1 multiple dose study PTC299-ONC-002-HV in healthy volunteers (PK, safety); type: in vivo, human; conditions: human, plasma, oral, 0.3 mg/kg, 0.3 mg/kg BID, Day 1, capsule; read-out: AUCO-4

compound: COc1ccc([C@H]2c3[nH]c4ccc(Cl)cc4c3CCN2C(=O)Oc2ccc(Cl)cc2)cc1 [PTC299]
AUC (ng·h/mL): 4310

###

test: Relative bioavailability tablet versus capsule; conditions: in vivo, oral; administered with food; read-out: relative bioavailability of tablet formulation compared with the capsule

molecule: COc1ccc([C@H]2c3[nH]c4ccc(Cl)cc4c3CCN2C(=O)Oc2ccc(Cl)cc2)cc1 [PTC299]
bioavailability: ~40%
